tested on: Ebolavirus; test: Antiviral activity against EBOV infected in human Huh-7 cells assessed as reduction in viral replication; assay type: functional, organism-based; conditions: Orthoebolavirus
reported-metric: EC50 (µM)
Field format: number, assumed µM, no unit text.

Form field EC50, entry CCC(CC)COC(=O)[C@H](C)N[P@](=O)(OC[C@H]1O[C@@](C#N)(c2ccc3c(N)ncnn23)[C@H](O)[C@@H]1O)Oc1ccccc1 : 61.9

* * *

system: Ebolavirus; experiment: Antiviral activity against Ebola virus infected in African green monkey Vero cells incubated for 3 days by immunofocus assay; assay type: functional, organism-based; conditions: Orthoebolavirus, 72 h
reported-metric: pEC50
The scale used: pEC50 is minus the common logarithm of the concentration in molar units.

Form field pEC50, entry CCC(CC)COC(=O)[C@H](C)N[P@](=O)(OC[C@H]1O[C@@](C#N)(c2ccc3c(N)ncnn23)[C@H](O)[C@@H]1O)Oc1ccccc1 : 6.11

* * *

system: Middle East respiratory syndrome-related coronavirus; experiment: Antiviral activity against MERS-CoV infected in human Calu-3 cells assessed as inhibition of viral growth by infection assay; format: functional, organism-based
Structures can show the parent of a compound that is named as a salt.
reported-metric: pEC50
The scale used: pEC50 is minus the common logarithm of the concentration in molar units.

Form field pEC50, entry CN(C)C(=O)COC(=O)Cc1ccc(OC(=O)c2ccc(NC(=N)N)cc2)cc1 : 8.30

Form field pEC50, entry N=C(N)Nc1ccc(C(=O)Oc2ccc3cc(C(=N)N)ccc3c2)cc1 [NAFAMOSTAT MESYLATE] : 7.06
